# ASSAY_METHOD_TEXT: COS7 lysate on small-molecule microarray, probe aHis, 635 nm (AID 1123);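 also: z-score combines 667nm fluorescence intensity with signal-to-noise per printed compound spot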
# CONDITION_PARAMETERS: COS7 cell lysate, fluorescence, higher = more signal
PROPERTY_MEASURED: composite z-score
Enter the number alone.

CC(C)c1ccc(NN2C(C(O)c3ccccc3)C=CC3C(=O)N(c4ccccc4)C(=O)C32)cc1 (centres undefined) = 1.79
COc1ccc([Si](C)(C)[C@@H]2[C@@H](CC(=O)N(CCO)Cc3ccccc3)O[C@]3(C(=O)N(Cc4cccc(I)c4)c4ccccc43)[C@H]2C)cc1 = 0.763
O=C1C2C=CC(C(O)C3CC=CCC3)N(Nc3ccc([N+](=O)[O-])cc3)C2C(=O)N1c1ccccc1 (centres undefined) = 2.5

// below: composite z-score requested for another compound
Q: What does the data say about its composite z-score? Entry: CC(C)[Si]1(C(C)C)OCc2cc(-c3ccc(-c4ccc(Cl)c(Cl)c4)o3)nc(-c3ccc(Oc4ccccc4)cc3)c21
A: -0.558
